biological target: human GLP1-R (Homo sapiens); test: GLP1-R internalization assay in HEK293 cells; type: cell-based; settings: HEK293 cells expressing SNAP-GLP-1R; read-out: GLP1R Internalization EC50
Sequence (P43220 24-463): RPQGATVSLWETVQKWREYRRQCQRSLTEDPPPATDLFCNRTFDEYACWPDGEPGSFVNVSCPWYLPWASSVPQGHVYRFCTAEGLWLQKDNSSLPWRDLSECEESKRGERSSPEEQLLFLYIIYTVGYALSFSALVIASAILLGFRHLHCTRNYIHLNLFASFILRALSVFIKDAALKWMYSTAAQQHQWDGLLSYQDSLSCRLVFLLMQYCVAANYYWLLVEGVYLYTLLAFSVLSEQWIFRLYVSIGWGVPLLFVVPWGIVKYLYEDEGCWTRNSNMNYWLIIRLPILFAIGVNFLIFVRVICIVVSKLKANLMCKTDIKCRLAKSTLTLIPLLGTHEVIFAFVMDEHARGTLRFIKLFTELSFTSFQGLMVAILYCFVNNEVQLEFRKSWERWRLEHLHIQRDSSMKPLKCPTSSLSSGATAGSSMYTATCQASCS
Starred links: 1 amine or outer side, 2 acyl side, 3 side chain; linkers in the order of their positions; H or OH if unused. Non-standard residues stand in square brackets, D forms with d. Groups on a side chain read outwards from the residue. *: point of attachment. C20 diacid = O=C(O)CCCCCCCCCCCCCCCCCCC(=O)*; C18 diacid = O=C(O)CCCCCCCCCCCCCCCCC(=O)*; γGlu = O=C(O)[C@H](CCC(=O)[*:2])N[*:1]; αMeL = CC(C)C[C@](C)(N)C(=O)O; Orn = NCCC[C@H](N)C(=O)O; AEEA = NCCOCCOCC(=O)O; Aib = CC(C)(N)C(=O)O
Measured EC50, listed per entry for reference.
Express it in nM; write the number only.

INSERT INTO measurements (substance, target_entity, readout_name, observed_result) VALUES
  ('H-Y[Aib]QGTFTSDFSK[αMeL]LDKK([AEEA-γGlu-C20 diacid])AQ[Aib]AFIEYLLE[Aib]GPSSGAPPPGGS-NH2 [Example 43]', 'human GLP1-R (Homo sapiens)', 'EC50', 58.2),
  ('H-Y[Aib]QGTFTSDFS[Orn][αMeL]LDKK([AEEA-γGlu-C18 diacid])AQ[Aib]AFIEWLLEGGHSSGAPPPSGT-NH2 [Example 171]', 'human GLP1-R (Homo sapiens)', 'EC50', 61.4);

Any idea what EC50 was measured for H-Y[Aib]QGTFTSDFS[Orn][αMeL]LDKK([AEEA-AEEA-γGlu-C18 diacid])AQ[Aib]AFIEYLLE[Aib]GPSSGAPPPSGS-NH2 [Example 75] ?
61.8

----------
Molecular target: hGIPR (Homo sapiens)
Sequence (P48546 22-466): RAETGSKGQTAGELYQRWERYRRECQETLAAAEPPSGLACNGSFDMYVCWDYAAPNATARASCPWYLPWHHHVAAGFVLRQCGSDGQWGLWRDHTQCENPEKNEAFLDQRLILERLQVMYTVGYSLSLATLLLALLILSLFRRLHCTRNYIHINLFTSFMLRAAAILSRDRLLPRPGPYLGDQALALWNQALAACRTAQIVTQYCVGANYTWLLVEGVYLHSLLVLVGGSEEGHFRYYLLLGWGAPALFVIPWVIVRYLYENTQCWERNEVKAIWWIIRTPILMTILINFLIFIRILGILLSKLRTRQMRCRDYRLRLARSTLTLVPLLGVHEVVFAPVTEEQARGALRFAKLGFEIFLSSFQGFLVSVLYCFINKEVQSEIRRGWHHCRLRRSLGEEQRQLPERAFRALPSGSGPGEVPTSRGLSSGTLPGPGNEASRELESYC
Test: Functional cAMP activation in the presence of 0.1% casein (no HSA);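 also: intracellular cAMP rise after 30 min at 37 °C read by HTRF against a standard curve, scaled between buffer alone (0%) and top control ligand concentration (100%), four-parameter fit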
Assay type: cell-based
Conditions: read-out: Relative cAMP EC50, hGIPR
Starred links: 1 amine or outer side, 2 acyl side, 3 side chain; linkers in the order of their positions; H or OH if unused. Non-standard residues stand in square brackets, D forms with d. Groups on a side chain read outwards from the residue. No end group written: not given here. *: point of attachment. C18 diacid = O=C(O)CCCCCCCCCCCCCCCCC(=O)*; αMePhe(2-F) = C[C@](N)(Cc1ccccc1F)C(=O)O; γGlu = O=C(O)[C@H](CCC(=O)[*:2])N[*:1]; αMe4Pal = C[C@](N)(Cc1ccncc1)C(=O)O; αMeY = C[C@](N)(Cc1ccc(O)cc1)C(=O)O; 4Pal = N[C@@H](Cc1ccncc1)C(=O)O; αMeL = CC(C)C[C@](C)(N)C(=O)O; αMeS = C[C@](N)(CO)C(=O)O; Orn = NCCC[C@H](N)C(=O)O; AEEA = NCCOCCOCC(=O)O; Aib = CC(C)(N)C(=O)O
READOUT_NAME: EC50
Returns: string containing the number followed by the unit.

Solved cases (3 shown):
INSERT INTO assay_data (substance, observed_result) VALUES
  ('H-Y[Aib]QGT[αMePhe(2-F)]TSD[4Pal]SI[αMeL]LD[Orn]K([AEEA-γGlu-C18 diacid])AQ[αMe4Pal][Orn]FIE[αMeY]LIEGGPSSGEPPPEGT-NH2 [Example 505]', '0.00707 nM'),
  ('H-Y[Aib]QGT[αMePhe(2-F)]TSD[4Pal]SILLD[Orn]K([γGlu-γGlu-C18 diacid])AQ[Aib]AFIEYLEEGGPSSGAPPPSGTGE-NH2 [Example 514]', '0.0744 nM'),
  ('H-Y[Aib]QGTFTSDFS[Orn][αMeL]LDKK([γGlu-γGlu-C18 diacid])AQ[Aib]AFIEYLLEGGPSS[Aib]APPPGGS-NH2 [Example 770]', '0.244 nM');

Form field - read-out: EC50; system: hGIPR (Homo sapiens); submitted item: Y[Aib]QGT[αMePhe(2-F)]TSD[4Pal][αMeS]I[αMeL]LD[Orn]K([γGlu-γGlu-C18 diacid])AQ[αMe4Pal]EFI[dE][αMeY]LVEGGPSSGEPPPSGSEE-NH2 [Example 740]
0.012 nM

Form field - read-out: EC50; system: hGIPR (Homo sapiens); submitted item: Y[Aib]QGT[αMePhe(2-F)]TSD[4Pal][αMeS]ILLD[Orn]K([γGlu-γGlu-C18 diacid])AQ[Aib][Orn]FI[dE]YLIEGGPSSGEPPPEGEEE-NH2 [Example 606]
0.17 nM

Form field - read-out: EC50; system: hGIPR (Homo sapiens); submitted item: H-Y[Aib]QGT[αMePhe(2-F)]TSD[4Pal][αMeS]I[αMeL]LD[Orn]K([γGlu-γGlu-C18 diacid])AQ[αMe4Pal]EFI[dE][αMeY]LIEGGPSSGEPPPSGGGE-NH2 [Example 744]
0.00844 nM

Form field - read-out: EC50; system: hGIPR (Homo sapiens); submitted item: H-Y[Aib]QGT[αMePhe(2-F)]TSD[4Pal][αMeS]I[αMeL]LD[Orn]K([γGlu-γGlu-C18 diacid])AQ[αMe4Pal]EFI[dE][αMeY]LIEGGPSSGAPPPEGGGE-NH2 [Example 761]
0.00686 nM

Form field - read-out: EC50; system: hGIPR (Homo sapiens); submitted item: Y[Aib]QGT[αMePhe(2-F)]TSD[4Pal]SI[αMeL]LD[Orn]K([AEEA-γGlu-C18 diacid])AQ[αMe4Pal][Orn]FI[dE][αMeY]LIEGGPSSGEPPPEGT[dE]-NH2 [Example 691]
0.0117 nM
